Let's look at some compounds and their measured Emax.
- EXPERIMENTAL SYSTEM: SIRT1 (Homo sapiens, UniProt Q96EB6)
- Construct: His-tag (N); made in house; host or cells: E. coli BL21(DE3), T7-promoter vector
- Sequence (Q96EB6 whole entry): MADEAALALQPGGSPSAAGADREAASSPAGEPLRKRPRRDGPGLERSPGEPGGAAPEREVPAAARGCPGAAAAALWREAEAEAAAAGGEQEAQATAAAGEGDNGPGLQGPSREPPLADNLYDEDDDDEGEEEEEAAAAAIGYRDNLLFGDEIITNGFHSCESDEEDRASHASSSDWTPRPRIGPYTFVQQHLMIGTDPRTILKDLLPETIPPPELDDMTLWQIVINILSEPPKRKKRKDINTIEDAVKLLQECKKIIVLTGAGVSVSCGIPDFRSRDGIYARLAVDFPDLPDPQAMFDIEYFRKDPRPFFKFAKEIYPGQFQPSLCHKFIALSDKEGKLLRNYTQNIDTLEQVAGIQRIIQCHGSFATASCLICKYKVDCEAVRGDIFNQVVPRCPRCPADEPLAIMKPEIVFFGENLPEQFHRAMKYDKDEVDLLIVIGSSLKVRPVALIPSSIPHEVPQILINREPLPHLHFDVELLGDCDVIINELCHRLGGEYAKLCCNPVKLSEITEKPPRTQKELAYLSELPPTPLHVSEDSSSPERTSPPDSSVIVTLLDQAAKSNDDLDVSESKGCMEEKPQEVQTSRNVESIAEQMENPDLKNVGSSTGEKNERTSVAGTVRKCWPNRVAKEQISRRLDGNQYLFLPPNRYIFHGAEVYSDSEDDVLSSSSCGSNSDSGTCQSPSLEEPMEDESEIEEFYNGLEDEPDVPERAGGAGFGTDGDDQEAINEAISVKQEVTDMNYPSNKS
- ASSAY PROTOCOL: Mass spectrometry based assay for modulators of SIRT1 activity (deacetylation of p53-based acetylated peptide)
- Assay type: biochemical
- MEASUREMENT CONTEXT: percent maximum fold activation of SIRT1

# COMPOUND, Emax
measured = [
    ("Cc1ccc(-c2nc3c(C(=O)Nc4nccs4)cccn3n2)cn1 [Compound 210]", "< 200%"),
    ("Cc1nc(C)c(-c2nc3c(C(=O)Nc4nccs4)cccn3n2)s1 [Compound 229]", "< 200%"),
    ("O=C(Nc1ccccn1)c1nccn2cc(-c3ccc(F)cc3C(F)(F)F)nc12 [Compound 189]", "> 200%"),
]

Pending compound:
// query Respond only with Emax recorded for O=C(Nc1nc(CN2CCOCC2)cs1)c1cccn2cc(-c3ccc(F)cc3C(F)(F)F)nc12 [Compound 237]
// result > 200%
